- MEASURED TARGET: T1, Guinea pig NOTUM (guinea pig, UniProt Q6P988 21-496 (human entry))
- T1 construct: Expressed by transient transfection
- T1 chain: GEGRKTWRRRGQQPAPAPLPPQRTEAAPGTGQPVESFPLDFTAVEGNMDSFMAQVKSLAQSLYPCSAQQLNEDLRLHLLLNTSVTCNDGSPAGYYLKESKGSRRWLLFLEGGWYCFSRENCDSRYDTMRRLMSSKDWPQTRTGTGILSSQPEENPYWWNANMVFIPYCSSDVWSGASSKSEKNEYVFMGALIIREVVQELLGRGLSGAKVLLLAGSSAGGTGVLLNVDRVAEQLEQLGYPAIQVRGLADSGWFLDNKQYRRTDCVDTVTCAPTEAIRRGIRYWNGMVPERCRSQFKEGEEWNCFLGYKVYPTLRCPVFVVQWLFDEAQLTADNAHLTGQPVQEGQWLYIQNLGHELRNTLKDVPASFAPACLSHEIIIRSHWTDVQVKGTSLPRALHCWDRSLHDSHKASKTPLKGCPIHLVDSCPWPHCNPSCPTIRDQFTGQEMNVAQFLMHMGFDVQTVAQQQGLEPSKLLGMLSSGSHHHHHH
- EXPERIMENTAL DETAILS: ELISA
ATTRIBUTE MEASURED: binding result

MAb 1.815 (antibody, IgG1, V domains shown, Mouse monoclonal antibody from Campaign 1, IgG1) VH: DVQLLESGGGLVQPGGSRKLSCAASGFTFSDFGMHWVRQAPEKGLEWVAYSSSGGTTVYYADTVKGRLTLSRDNSKNTLFLEMTSLRSEDTAMYYCARASYDGGYFDCWGQGTSLTVSS VL: DIVLTQSPASLAVSLGQRATISCRASKSVSTSGYSYIHWYQQKPGQPPKLLIYLASDLESGVPARFSGSGSGAAFTLNIHPVEEEDAATYYCHHSRELPFTFGSGTKLEIKR: binds
